- ASSAY_SYSTEM: CLK4 (human) (UniProt Q9HAZ1)
- Sequence (Q9HAZ1 whole entry, looked up): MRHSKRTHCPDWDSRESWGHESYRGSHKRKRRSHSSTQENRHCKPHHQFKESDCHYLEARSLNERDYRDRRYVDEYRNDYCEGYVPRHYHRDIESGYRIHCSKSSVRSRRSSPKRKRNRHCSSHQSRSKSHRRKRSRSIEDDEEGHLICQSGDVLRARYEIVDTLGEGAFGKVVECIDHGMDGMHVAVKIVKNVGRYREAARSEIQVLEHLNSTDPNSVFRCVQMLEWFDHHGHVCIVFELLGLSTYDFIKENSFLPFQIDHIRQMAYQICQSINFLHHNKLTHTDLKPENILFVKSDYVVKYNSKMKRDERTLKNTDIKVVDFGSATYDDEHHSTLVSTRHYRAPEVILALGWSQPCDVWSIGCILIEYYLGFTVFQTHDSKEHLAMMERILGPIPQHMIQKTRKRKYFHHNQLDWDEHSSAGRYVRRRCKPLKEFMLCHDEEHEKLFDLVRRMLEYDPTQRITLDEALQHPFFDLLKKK
- ASSAY_PROCEDURE: KINOMEscan competition binding
- EXPERIMENTAL_CONTEXT: compound 10.0 µM

SMILES_INPUT: C[C@@H](Oc1cc(-n2cnc3ccc(CN4CCN(C)CC4)cc32)sc1C(N)=O)c1ccccc1C(F)(F)F
kinase still bound, per cent of control (%): 59
//
SMILES_INPUT: Cn1c(=O)n(-c2ccc(C(C)(C)C#N)cc2)c2c3cc(-c4cnc5ccccc5c4)ccc3ncc21
kinase still bound, per cent of control (%): 22
//
SMILES_INPUT: CCOc1cc2ncc(C#N)c(Nc3ccc(OCc4ccccn4)c(Cl)c3)c2cc1NC(=O)/C=C/CN(C)C
kinase still bound, per cent of control (%): 100

----------
- ASSAY_SYSTEM: STK11 (human) (UniProt Q15831)
- Sequence (Q15831 whole entry, looked up): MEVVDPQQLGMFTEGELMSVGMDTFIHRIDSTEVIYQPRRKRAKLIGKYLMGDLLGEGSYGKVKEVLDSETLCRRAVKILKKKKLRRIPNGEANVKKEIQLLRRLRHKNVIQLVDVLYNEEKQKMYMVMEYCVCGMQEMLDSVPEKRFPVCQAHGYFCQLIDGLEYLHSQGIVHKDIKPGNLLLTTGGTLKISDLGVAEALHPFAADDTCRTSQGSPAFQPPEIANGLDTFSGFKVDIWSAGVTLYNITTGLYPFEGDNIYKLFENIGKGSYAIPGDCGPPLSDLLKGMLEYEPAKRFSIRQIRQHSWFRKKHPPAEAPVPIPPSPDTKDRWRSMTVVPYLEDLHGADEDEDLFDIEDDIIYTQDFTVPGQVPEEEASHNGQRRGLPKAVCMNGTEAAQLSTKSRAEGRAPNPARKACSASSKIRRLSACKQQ
- ASSAY_PROCEDURE: KINOMEscan competition binding
- EXPERIMENTAL_CONTEXT: compound 10.0 µM
Response field label takes 1 when kinase still bound, per cent of control is strictly below 90% and -1 in all other cases.

COMPOUND: COc1cc(C(=O)NC2CCN(C)CC2)ccc1Nc1ncc2c(n1)N(C1CCCC1)C(C)CC(=O)N2C (stereo not given)
ASSAY_SYSTEM: STK11 (human) (UniProt Q15831)
CAT: -1
//
COMPOUND: C=CC(=O)Nc1cccc(Nc2nc(N[C@H]3CC[C@H](N(C)C)CC3)nc3c2ncn3C(C)C)c1
ASSAY_SYSTEM: STK11 (human) (UniProt Q15831)
CAT: 1
//
COMPOUND: Cn1c(=O)n(-c2ccc(C(C)(C)C#N)cc2)c2c3cc(-c4cnc5ccccc5c4)ccc3ncc21
ASSAY_SYSTEM: STK11 (human) (UniProt Q15831)
CAT: -1
//
COMPOUND: CCCS(=O)(=O)Nc1ccc(F)c(C(=O)c2c[nH]c3ncc(-c4ccc(Cl)cc4)cc23)c1F
ASSAY_SYSTEM: STK11 (human) (UniProt Q15831)
CAT: 1
//
COMPOUND: CC[C@@H]1C(=O)N(C)c2cnc(Nc3ccc(C(=O)NC4CCN(C)CC4)cc3OC)nc2N1C1CCCC1
ASSAY_SYSTEM: STK11 (human) (UniProt Q15831)
CAT: -1
//
COMPOUND: O=C(NC1CC1)c1cccc(-c2ccc3c(NC(=O)C4CC4)n[nH]c3c2)c1
ASSAY_SYSTEM: STK11 (human) (UniProt Q15831)
CAT: 1
//
COMPOUND: CCC(=O)N1CCN(c2ccc(-n3c(=O)ccc4cnc5ccc(-c6cnc7ccccc7c6)cc5c43)cc2C(F)(F)F)CC1
ASSAY_SYSTEM: STK11 (human) (UniProt Q15831)
CAT: -1
//
COMPOUND: Cc1ccc(C(=O)Nc2cccc(C(F)(F)F)c2)cc1Nc1cncc(C(N)=O)c1
ASSAY_SYSTEM: STK11 (human) (UniProt Q15831)
CAT: -1
//
COMPOUND: Cc1ccc(NC(=O)c2cccc(C(C)(C)C#N)c2)cc1Nc1ccc2ncn(C)c(=O)c2c1
ASSAY_SYSTEM: STK11 (human) (UniProt Q15831)
CAT: -1

----------
- ASSAY_SYSTEM: RPS6KA2 KD2 (human)
- ASSAY_PROCEDURE: KINOMEscan competition binding
- EXPERIMENTAL_CONTEXT: compound 10.0 µM
Response field label takes y when kinase still bound, per cent of control is strictly below 80% and n in all other cases.

SMILES_INPUT: CC[C@@H]1C(=O)N(C)c2cnc(Nc3ccc(C(=O)NC4CCN(C)CC4)cc3OC)nc2N1C1CCCC1
CAT: y
--
SMILES_INPUT: C[C@@H](Oc1cc(-n2cnc3ccc(CN4CCN(C)CC4)cc32)sc1C(N)=O)c1ccccc1C(F)(F)F
CAT: y
--
SMILES_INPUT: Cc1ccc(NC(=O)c2cccc(C(C)(C)C#N)c2)cc1Nc1ccc2ncn(C)c(=O)c2c1
CAT: n
--
SMILES_INPUT: CCC(=O)N1CCN(c2ccc(-n3c(=O)ccc4cnc5ccc(-c6cnc7ccccc7c6)cc5c43)cc2C(F)(F)F)CC1
CAT: n
--
SMILES_INPUT: Cc1ccc(C(=O)Nc2cccc(C(F)(F)F)c2)cc1Nc1cncc(C(N)=O)c1
CAT: n
--
SMILES_INPUT: CCN1CCN(Cc2ccc(Nc3ncc4c(n3)N(C)c3ccccc3C(=O)N4C)cc2C(F)(F)F)CC1
CAT: y
--
SMILES_INPUT: O=C(NOC[C@H](O)CO)c1ccc(F)c(F)c1Nc1ccc(I)cc1F
CAT: n
--
SMILES_INPUT: CCOc1cc2ncc(C#N)c(Nc3ccc(OCc4ccccn4)c(Cl)c3)c2cc1NC(=O)/C=C/CN(C)C
CAT: n
--
SMILES_INPUT: COc1cc(N2CCN(C)CC2)ccc1Nc1nc(N)c(C(=O)c2c(Cl)cccc2Cl)s1
CAT: y
--
SMILES_INPUT: Cc1ccc2nc(NCCN)c3ncc(C)n3c2c1
CAT: n
--
SMILES_INPUT: O=C(O)c1ccc(Nc2ncc3c(n2)-c2ccc(Cl)cc2C(c2c(F)cccc2F)=NC3)cc1
CAT: y
--
SMILES_INPUT: C=CC(=O)Nc1cc(NC(=O)c2ccc(C)c(NC(=O)c3ccno3)c2)cc(C(F)(F)F)c1
CAT: n
--
SMILES_INPUT: Cn1c(=O)n(-c2ccc(C(C)(C)C#N)cc2)c2c3cc(-c4cnc5ccccc5c4)ccc3ncc21
CAT: n

----------
- ASSAY_SYSTEM: PHKG1 (human)
- ASSAY_PROCEDURE: KINOMEscan competition binding
- EXPERIMENTAL_CONTEXT: compound 10.0 µM
MEASUREMENT_LABEL: kinase still bound, per cent of control (%)

MOLECULE: OCCCNc1cc(-c2ccnc(Nc3cccc(Cl)c3)n2)ccn1
EXPERIMENTAL_VALUE: 100
//
MOLECULE: CCC(=O)N1CCN(c2ccc(-n3c(=O)ccc4cnc5ccc(-c6cnc7ccccc7c6)cc5c43)cc2C(F)(F)F)CC1
EXPERIMENTAL_VALUE: 100
//
MOLECULE: Cc1ccc(NC(=O)c2cccc(C(C)(C)C#N)c2)cc1Nc1ccc2ncn(C)c(=O)c2c1
EXPERIMENTAL_VALUE: 100
//
MOLECULE: O=C(NOC[C@H](O)CO)c1ccc(F)c(F)c1Nc1ccc(I)cc1F
EXPERIMENTAL_VALUE: 100
//
MOLECULE: C=CC(=O)Nc1cc(NC(=O)c2ccc(C)c(NC(=O)c3ccno3)c2)cc(C(F)(F)F)c1
EXPERIMENTAL_VALUE: 92
//
MOLECULE: CCN1CCN(Cc2ccc(Nc3ncc4c(n3)N(C)c3ccccc3C(=O)N4C)cc2C(F)(F)F)CC1
EXPERIMENTAL_VALUE: 100
//
MOLECULE: CN(C)C/C=C/C(=O)Nc1cccc(Nc2ncc3c(n2)N(C)c2ccccc2C(=O)N3C)c1
EXPERIMENTAL_VALUE: 69
//
MOLECULE: N#Cc1c(NC(=O)c2cccc3ccccc23)sc2c1CCCC2
EXPERIMENTAL_VALUE: 100
//
MOLECULE: COc1cc(C(=O)NC2CCN(C)CC2)ccc1Nc1ncc2c(n1)N(C1CCCC1)C(C)CC(=O)N2C (centres undefined)
EXPERIMENTAL_VALUE: 100

----------
- ASSAY_SYSTEM: CLK1 (human) (UniProt P49759)
- Sequence (P49759 whole entry, looked up): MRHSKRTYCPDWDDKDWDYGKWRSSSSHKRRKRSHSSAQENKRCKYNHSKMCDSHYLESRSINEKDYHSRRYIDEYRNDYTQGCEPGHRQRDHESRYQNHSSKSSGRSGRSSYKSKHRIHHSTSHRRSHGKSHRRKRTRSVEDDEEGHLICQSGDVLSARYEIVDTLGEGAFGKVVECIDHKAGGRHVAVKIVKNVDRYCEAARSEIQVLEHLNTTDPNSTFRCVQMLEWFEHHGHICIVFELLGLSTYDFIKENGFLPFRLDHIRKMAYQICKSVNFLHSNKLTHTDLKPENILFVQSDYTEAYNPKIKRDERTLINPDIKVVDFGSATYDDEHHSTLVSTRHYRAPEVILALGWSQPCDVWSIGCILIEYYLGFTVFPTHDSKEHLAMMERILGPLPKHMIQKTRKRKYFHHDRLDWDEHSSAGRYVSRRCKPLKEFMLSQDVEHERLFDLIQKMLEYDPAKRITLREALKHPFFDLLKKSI
- ASSAY_PROCEDURE: KINOMEscan competition binding
- EXPERIMENTAL_CONTEXT: compound 10.0 µM
MEASUREMENT_LABEL: kinase still bound, per cent of control (%)

SMILES_INPUT: COc1cc(C(=O)NC2CCN(C)CC2)ccc1Nc1ncc2c(n1)N(C1CCCC1)CCC(=O)N2C(C)C
ASSAY_SYSTEM: CLK1 (human) (UniProt P49759)
MEASUREMENT_LABEL: kinase still bound, per cent of control
EXPERIMENTAL_VALUE: 100
//
SMILES_INPUT: C[C@@H](Oc1cc(-n2cnc3ccc(CN4CCN(C)CC4)cc32)sc1C(N)=O)c1ccccc1C(F)(F)F
ASSAY_SYSTEM: CLK1 (human) (UniProt P49759)
MEASUREMENT_LABEL: kinase still bound, per cent of control
EXPERIMENTAL_VALUE: 36
//
SMILES_INPUT: COc1cc(N2CCN(C)CC2)ccc1Nc1nc(N)c(C(=O)c2c(Cl)cccc2Cl)s1
ASSAY_SYSTEM: CLK1 (human) (UniProt P49759)
MEASUREMENT_LABEL: kinase still bound, per cent of control
EXPERIMENTAL_VALUE: 22
//
SMILES_INPUT: CCOc1cc2ncc(C#N)c(Nc3ccc(OCc4ccccn4)c(Cl)c3)c2cc1NC(=O)/C=C/CN(C)C
ASSAY_SYSTEM: CLK1 (human) (UniProt P49759)
MEASUREMENT_LABEL: kinase still bound, per cent of control
EXPERIMENTAL_VALUE: 84
//
SMILES_INPUT: O=C(NC1CC1)c1cccc(-c2ccc3c(NC(=O)C4CC4)n[nH]c3c2)c1
ASSAY_SYSTEM: CLK1 (human) (UniProt P49759)
MEASUREMENT_LABEL: kinase still bound, per cent of control
EXPERIMENTAL_VALUE: 77
//
SMILES_INPUT: O=C(O)c1ccc(Nc2ncc3c(n2)-c2ccc(Cl)cc2C(c2c(F)cccc2F)=NC3)cc1
ASSAY_SYSTEM: CLK1 (human) (UniProt P49759)
MEASUREMENT_LABEL: kinase still bound, per cent of control
EXPERIMENTAL_VALUE: 63
//
SMILES_INPUT: CC[C@@H]1C(=O)N(C)c2cnc(Nc3ccc(C(=O)NC4CCN(C)CC4)cc3OC)nc2N1C1CCCC1
ASSAY_SYSTEM: CLK1 (human) (UniProt P49759)
MEASUREMENT_LABEL: kinase still bound, per cent of control
EXPERIMENTAL_VALUE: 100
//
SMILES_INPUT: Cc1ccc(NC(=O)c2cccc(C(C)(C)C#N)c2)cc1Nc1ccc2ncn(C)c(=O)c2c1
ASSAY_SYSTEM: CLK1 (human) (UniProt P49759)
MEASUREMENT_LABEL: kinase still bound, per cent of control
EXPERIMENTAL_VALUE: 100
//
SMILES_INPUT: Cc1cc([C@@H](C)Nc2ccccc2C(=O)O)c2nc(N3CCOCC3)cc(=O)n2c1
ASSAY_SYSTEM: CLK1 (human) (UniProt P49759)
MEASUREMENT_LABEL: kinase still bound, per cent of control
EXPERIMENTAL_VALUE: 74
